Hi there, I'd appreciate the recorded pKd for every entry that follows.
Target: T1, human galectin-10-His (recombinant human galectin-10 with TEV-cleavable N-terminal His-tag) (human)
T1 construct: SEC-MALLS: dimer in solution; also called Gal10-His; humanGal10-His
T1 chain: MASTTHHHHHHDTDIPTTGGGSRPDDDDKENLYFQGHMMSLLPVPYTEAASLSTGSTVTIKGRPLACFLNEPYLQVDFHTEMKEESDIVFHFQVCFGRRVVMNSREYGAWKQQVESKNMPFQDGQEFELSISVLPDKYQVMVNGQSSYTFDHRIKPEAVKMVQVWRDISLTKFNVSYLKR
Assay: SPR Biacore T3000, mouse IgG1 captured by anti-mouse Fc, galectin-10-His as analyte
// pKd here means minus log10 of the molar concentration (mol/L)

Q: Answer with the recorded pKd for the binder listed here: 2F09 mouse IgG1 (antibody, V domains shown, VH on mouse IgG1 heavy chain constant domains (CH1-CH2-CH3), VL on mouse lambda light chain constant domain; also called 2F09 mIgG1) VH: QVQVQESGPGLVKPSQTLSLTCTVSGGSITTNYFYWSWIRQSPGKGLEWIGAIAYSGRTYYSPSLKSRTSISRDTSNNQFTLQLSSVTPEDTAVYYCARGPKGLASYYDYWGQGTQVTVSS VL: SSALTQPSAVSVSLGQTARITCQGGNFGYYYVSWYQQKPGQAPVLVIYRDSGRPSGIPERFSGSSSGDTATLTISGAQAEDEADYYCQSGSSSDNTVFGGGTHLTVL
Result: 9.52

Q: Answer with the recorded pKd for the binder listed here: 6F06 mouse IgG1 (antibody, V domains shown, also called 6F06 mIgG1) VH: QVQLVESGGGLVQPGGSLRLSCAASEFTFSRYSMSWVRQAPGKGLEWVSTINSGGGSTSYVDSVKGRFTISRDNAKNTLYLQMNSLKPEDTAVYYCTKSQGGISFSTQYGMDYWGKGTLVTVSS VL: NFMLTQPSAVSVSLGQTARITCQGGNFGRYYANWYQQKPGQAPVLVIYKDSERPSGIPERFSGSSSGDTATLTISGAQAEDESDYYCQSGSVSDNAVFGGGTHLAVL
Result: 9.15

Q: Answer with the recorded pKd for the binder listed here: 2C07 mouse IgG1 (antibody, V domains shown, VH on mouse IgG1 heavy chain constant domains (CH1-CH2-CH3), VL on mouse lambda light chain constant domain; also called 2C07 mIgG1) VH: ELQLVESGGGLVQPGGSLRLSCAASGFTFSSYAMSWVRQAPGKGLEWVSNINSGGGSTGYADSVKGRFTISRDNAKNTLYLQMNSLKPEDMAVYYCAKYLRTYYPNAAFGMDYWGKGTLVTVSS VL: QAVLTQPSAVSVSLGQTARITCQGGNFGRYYASWYQQKPGQAPVLVIYRDSERPSGIPERFSGSSSGDTATLTISGAQAEDEADYYCQSGRSSDNAVFGGGTHLTGL
Result: 9.30

Q: Answer with the recorded pKd for the binder listed here: 1D11 mouse IgG1 (antibody, V domains shown, VH on mouse IgG1 heavy chain constant domains (CH1-CH2-CH3), VL on mouse lambda light chain constant domain; also called 1D011; 1D11 mIgG1) VH: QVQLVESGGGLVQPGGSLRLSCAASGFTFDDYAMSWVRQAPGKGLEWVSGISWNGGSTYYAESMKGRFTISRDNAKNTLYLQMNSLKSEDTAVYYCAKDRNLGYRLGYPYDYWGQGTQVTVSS VL: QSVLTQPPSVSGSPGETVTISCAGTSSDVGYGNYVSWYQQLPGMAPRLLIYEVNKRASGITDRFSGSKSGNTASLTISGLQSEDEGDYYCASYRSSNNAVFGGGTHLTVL
Result: 9.00

Q: Answer with the recorded pKd for the binder listed here: 4E08 mouse IgG1 (antibody, V domains shown, VH on mouse IgG1 heavy chain constant domains (CH1-CH2-CH3), VL on mouse lambda light chain constant domain; also called 4E8; 4E08 mIgG1) VH: QVQRQESGPGLVKPSQTLSLTCTVSGGSITTSYYAWSWIRQPPGKGLEWMGVIASDGSTYYSPSLKSRTSISRDTSKNQFSLQLSSVTPEDTAVYYCALYIRGSSWSGWSAYDYWGQGTQVTVSS VL: QPVLNQPSAVSVSLGQTARITCQGGNFGYYYGSWYQQKPGQAPVLVIYKDSERPSGIPERFSGSSSGGTATLTISRAQAEDEADYYCQSADSSDNPVFGGGTHLTVL
Result: 9.10
